- System: MDA-MB-468 breast
- method.summary: NCI tumour cell line growth inhibition, 48 h
Where a SMILES comes first, the peptide text is derived from it. [ ]: non-standard residue; d: D form. pGlu = O=C1CC[CH](C(=O)O)N1
So I've got a bunch of molecules here, and I need their GI50 values.

{"molecule": "CCOC(=O)c1c(C)nc2c(c1N)CC(=O)N2Cc1ccc(OC)cc1", "GI50": "27.3 µM"}
{"molecule": "O=C(Oc1cccc(F)c1OC(=O)c1cccc(O)c1)c1cccc(O)c1", "GI50": "18.2 µM"}
{"molecule": "O=c1[nH]c(=O)c2cn[nH]c2[nH]1", "GI50": "> 100 µM"}
{"molecule": "COc1cc(/C=C\\c2cc(OC)c(OC)c(OC)c2)cc(NC(=O)/C=C/c2cc(OC)c(OC)c(OC)c2)c1OC", "GI50": "1.99 µM"}
{"molecule": "Oc1c(-c2nnc(-c3ccccc3Cl)o2)sc2nnc(-c3ccccc3)c(-c3ccccc3)c12", "GI50": "5.11 µM"}
{"molecule": "C[C@H](NC(=O)[C@@H](C)N)[C@H](Oc1ccc2c(cnn2-c2ccc(F)cc2)c1)c1ccc2c(c1)OCCO2", "GI50": "2.12 µM"}
{"molecule": "Cc1cccc(/C=C/c2c(C(=O)/C=C/c3ccccc3)c(C)nc3ccccc23)c1", "GI50": "1.9 µM"}
{"molecule": "CCNC(=O)C1CCCN1C(=O)C(CCCN=C(N)N)NC(=O)C(CC(C)C)NC(=O)C(CC(C)C)NC(=O)C(Cc1ccc(O)cc1)NC(=O)C(CO)NC(=O)C(Cc1c[nH]c2ccccc12)NC(=O)C(Cc1cnc[nH]1)NC(=O)C1CCC(=O)N1 (stereo not drawn) ([pGlu]HWSYLLRP-NHEt; configuration not given here)", "GI50": "> 100 µM"}
{"molecule": "O=C(Nc1cc(Cl)cc(Cl)c1)Nc1nc2ccc([N+](=O)[O-])cc2s1", "GI50": "1 µM"}
{"molecule": "O=c1[nH]nnc2c1ncn2C1OC(CO)C(O)C1O (stereo not drawn)", "GI50": "3.36 µM"}

Give GI50 for each listed item.
1. COc1ccc(-c2nn(-c3cccc(Cl)c3)cc2-c2cc(-c3cccs3)[nH]c(=S)n2)cc1
2. COc1ncnc2c(-c3ccccc3)cn(COCc3ccccc3)c12
3. CCCCCCCCNc1cc2c3c(c1)CCCN3CCC2

[out]
2.57 µM
1.74 µM
1.54 µM

====

- Test system: MDA-MB-468 breast
- method.summary: NCI tumour cell line growth inhibition, 48 h
endpoint: TGI (µM)
Give bare numbers, in µM.

Give TGI for each listed item.
1. IP(CCCSc1n(Cc2ccc3ccccc3c2)c(-c2ccccc2)c(-c2ccccc2)[n+]1Cc1ccc2ccccc2c1)(c1ccccc1)(c1ccccc1)c1ccccc1
2. Fc1ccc(C2CC(c3cccc(Nc4ccncc4)c3)=NN2c2ccc(Cl)cc2)cc1 (stereo unspecified)
3. COc1ccc2[nH]cc(/C=N/Nc3ccc(Br)cn3)c2c1
4. COc1ccc2sc(NC(=O)CCCCCCNC(=O)C(O)(O)C(F)(F)F)nc2c1
5. O=C(CCCCCCNC(=O)c1cnc(N(c2ccccc2)c2ccccc2)nc1)NO
6. C=CCN=c1sc2c(n1NC(=O)c1cc3ccc1CCc1ccc(cc1)CC3)C(=O)c1ccccc1C2=O
7. N#Cc1ccc(OCc2nc(N)nc(N)c2-c2ccc(Cl)c(Cl)c2)cc1

[out]
1: 5.97; 2: 2.93; 3: 6.4; 4: 1.81; 5: 10.2; 6: 5.72; 7: 53.9
